# T/C per entry
Tested on: CD2F1 mice, L1210 leukemia ip, survival T/C
Experiment: NCI In Vivo Anticancer Drug Screen. Data for tumor model L1210 Leukemia (intraperitoneal) in CD2F1 (CDF1) mice
Settings: endpoint: mean survival time; dose: 400.0 mg/kg/injection; schedule: Q01DX009 (ip); vehicle: other; higher = longer survival
Toxic doses and inconclusive results are not listed.

- MOLECULE: "COC1=C(OC)C(=O)C(C/C=C(\\C)CCCC(C)CCCC(C)CCCC(C)C)=C(C)C1=O (stereo not given)"
  RESULT VALUE: "94 % of control"

--- query ---
Prompt line: # T/C lookup, item OC(Cc1[nH]c2ccccc2c1C(O)(C(F)(F)F)C(F)(F)F)(C(F)(F)F)C(F)(F)F
Response line: 94 % of control

---

Test system: CD2F1 mice, L1210 leukemia ip, survival T/C
Experiment: NCI In Vivo Anticancer Drug Screen. Data for tumor model L1210 Leukemia (intraperitoneal) in CD2F1 (CDF1) mice
Settings: endpoint: mean survival time; dose: 200.0 mg/kg/injection; schedule: Q04DX003 (ip); vehicle: Klucel (hydroxypropylcellulose) (HPC); higher = longer survival
Experimental: The antitumor activity of compounds was measured in mice bearing transplantable tumors. Survival or tumor size were measured and the results are expressed as the measurement made in the treated group (T) divided by the measurement made in the vehicle treated control group (C). The tumor model used in this assay is L1210 Leukemia (intraperitoneal) in CD2F1 (CDF1) mice
Toxic doses and inconclusive results are not listed.
QUANTITY MEASURED: T/C

- MOLECULE: "CC(C)C1CCC(C)C(C(O)(C(F)(F)F)C(F)(F)F)C1=O (stereo not drawn)"
  ASSAY TARGET: "CD2F1 mice, L1210 leukemia ip, survival T/C"
  QUANTITY MEASURED: "T/C"
  RESULT VALUE: "95 % of control"
- MOLECULE: "CCOC1=C(C#N)CC2(CC1)c1ccccc1-c1ccccc12"
  ASSAY TARGET: "CD2F1 mice, L1210 leukemia ip, survival T/C"
  QUANTITY MEASURED: "T/C"
  RESULT VALUE: "102 % of control"
- MOLECULE: "N#CC(C(N)=O)C1CC(=O)Oc2ccccc21 (stereo not drawn)"
  ASSAY TARGET: "CD2F1 mice, L1210 leukemia ip, survival T/C"
  QUANTITY MEASURED: "T/C"
  RESULT VALUE: "112 % of control"
- MOLECULE: "O=C(O)c1c2ccccc2cc2ccccc12"
  ASSAY TARGET: "CD2F1 mice, L1210 leukemia ip, survival T/C"
  QUANTITY MEASURED: "T/C"
  RESULT VALUE: "95 % of control"
- MOLECULE: "CC1([N+](=O)[O-])COC(c2ccc(Cl)cc2)OC1 (stereo not drawn)"
  ASSAY TARGET: "CD2F1 mice, L1210 leukemia ip, survival T/C"
  QUANTITY MEASURED: "T/C"
  RESULT VALUE: "104 % of control"
- MOLECULE: "O=C(Nc1cccc(O)c1)c1ccc([N+](=O)[O-])cc1"
  ASSAY TARGET: "CD2F1 mice, L1210 leukemia ip, survival T/C"
  QUANTITY MEASURED: "T/C"
  RESULT VALUE: "107 % of control"
- MOLECULE: "O=C(O)c1cccc2c1C(=O)c1ccccc1C2=O"
  ASSAY TARGET: "CD2F1 mice, L1210 leukemia ip, survival T/C"
  QUANTITY MEASURED: "T/C"
  RESULT VALUE: "101 % of control"
- MOLECULE: "CC/C(=N/NC(=O)c1ccccc1)c1ccccc1"
  ASSAY TARGET: "CD2F1 mice, L1210 leukemia ip, survival T/C"
  QUANTITY MEASURED: "T/C"
  RESULT VALUE: "94 % of control"
- MOLECULE: "CCOC(=O)Nc1nccs1"
  ASSAY TARGET: "CD2F1 mice, L1210 leukemia ip, survival T/C"
  QUANTITY MEASURED: "T/C"
  RESULT VALUE: "97 % of control"
- MOLECULE: "NNC(=O)CNc1cccc(Br)c1"
  ASSAY TARGET: "CD2F1 mice, L1210 leukemia ip, survival T/C"
  QUANTITY MEASURED: "T/C"
  RESULT VALUE: "111 % of control"

Prompt line: Data request, read-out T/C, for C/C(=C/c1ccccc1)C(O)C(=O)O (stereo not drawn)
Response line: 100 % of control

Prompt line: Give its T/C value. Item: OC(CBr)C(O)C(O)C(O)CBr (stereo not drawn)
Response line: 120 % of control

Prompt line: Param item = C(=N\Nc1nc2ccccc2s1)/c1ccc(/C=N/Nc2nc3ccccc3s2)cc1 ; retrieve measured T/C.
Response line: 92 % of control
